Test system: LNCap
Test: Growth inhibition assay (MTT), LNCap
Type: cell-based
Conditions: Homo sapiens; LNCap, Prostate cancer; 72 hours, MTT; read-out: IC50
MEASURED ENDPOINT: IC50

Req: # returns recorded IC50 (system: LNCap) for O=C(Nc1ccc([N+](=O)[O-])cc1Cl)c1cc(Cl)ccc1O [#166, niclosamide, reference compound]
Resp: 0.97 µM

Req: Do the same for O=C(Nc1ccc([N+](=O)[O-])cc1Cl)c1cc(Cl)ccc1OC1OC(CO)C(O)C(O)C1O (stereo not drawn) please
Resp: > 25 µM

Req: Do the same for CC(=O)OCOc1ccc(Cl)cc1C(=O)Nc1ccc([N+](=O)[O-])cc1Cl please
Resp: 2.44 µM
